Just for reference, patent US20230012273A1 is where these values come from.

Target: T1, Human SIRPαV2 (CAA71403.1), Extracellular Domain + His-Tag (human, UniProt P78324 31-373)
T1 construct: also called huSIRPαV2; hSIRPαV2; not shown: His-Tag
T1 sequence (P78324 other isoform, or with tags, fused parts or gaps): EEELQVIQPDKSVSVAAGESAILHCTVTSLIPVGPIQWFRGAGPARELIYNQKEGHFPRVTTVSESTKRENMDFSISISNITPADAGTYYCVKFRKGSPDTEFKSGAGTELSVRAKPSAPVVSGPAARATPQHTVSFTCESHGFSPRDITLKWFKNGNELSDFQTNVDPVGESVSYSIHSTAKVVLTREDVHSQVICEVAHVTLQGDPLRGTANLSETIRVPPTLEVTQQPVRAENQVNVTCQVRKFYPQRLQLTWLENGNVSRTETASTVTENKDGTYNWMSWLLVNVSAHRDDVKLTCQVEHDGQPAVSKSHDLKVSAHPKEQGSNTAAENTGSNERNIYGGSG
Test: SPR, antibody captured on Protein A/G, ECD-His analyte, 1:1 fit
Experimental: The binding kinetics of anti-SIRPα antibodies to various SIRPα analytes are determined by surface plasmon resonance (SPR) using a Biacore 8K+(Cytiva). 1×HBS-EP+(Cytiva) is used as running buffer and for all the dilutions unless stated otherwise. […]
Define the label as 1 when koff is strictly less than 0.0004 s⁻¹ and as 0 in all remaining cases.

{"columns": ["Binder", "Assigned category"],
 "data": [
  ["Antibody A3 (antibody, human IgG1, kappa, L234A L235A, V domains shown) VH: EVQLVESGGGLVQPGGSLRLSCAASGFTLSSYDMHWVRQATGKGLEWVSAIGTAGDTYYTGSVKGRFTISRENAKNSLYLQMNSLRASDTAVYYCVRGGVWDDAFDIWGQGTMVTVSS VL: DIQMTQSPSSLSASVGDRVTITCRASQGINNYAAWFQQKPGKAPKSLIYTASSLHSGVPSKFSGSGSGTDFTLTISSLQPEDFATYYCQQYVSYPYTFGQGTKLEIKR", 0],
  ["Antibody A14 (antibody, human IgG1, kappa, L234A L235A, V domains shown) VH: EVQLVESGGGLVQPGGSLRLSCAASGFTLSSYDMHWVRQAPGKGLEWVSAIGTAGDTYYTGSVKGRFTISRENAKNSLYLQMNSLRASDTAVYYCVRGGVWDDAFDIWGQGTMVTVSS VL: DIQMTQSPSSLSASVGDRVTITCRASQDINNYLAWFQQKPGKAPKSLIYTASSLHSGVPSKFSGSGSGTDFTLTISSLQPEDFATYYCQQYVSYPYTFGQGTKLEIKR", 0],
  ["Antibody E15 (antibody, human IgG1, kappa, L234A L235A, V domains shown) VH: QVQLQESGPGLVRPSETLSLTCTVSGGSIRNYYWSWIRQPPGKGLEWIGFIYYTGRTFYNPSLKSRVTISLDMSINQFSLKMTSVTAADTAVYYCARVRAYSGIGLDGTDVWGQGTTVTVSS VL: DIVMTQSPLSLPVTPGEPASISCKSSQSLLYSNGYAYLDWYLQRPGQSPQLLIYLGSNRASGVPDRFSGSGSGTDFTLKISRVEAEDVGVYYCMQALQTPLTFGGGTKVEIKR", 1],
  ["Antibody E3 (antibody, human IgG1, kappa, L234A L235A, V domains shown) VH: QVQLQESGPGLVRPSETLSLTCTVSGGSIRNYYWSWIRQPPGKGLEWIGFIYYNGRTFYNPSLKSRVTISLDMSKNQFSLKMTSVTAADTAVYYCARVRAYSGIGLDGTDVWGQGTTVTVSS VL: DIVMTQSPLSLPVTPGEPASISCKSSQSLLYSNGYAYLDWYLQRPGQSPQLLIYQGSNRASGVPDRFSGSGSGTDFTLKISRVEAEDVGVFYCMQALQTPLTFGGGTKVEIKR", 1],
  ["Antibody E4 (antibody, human IgG1, kappa, L234A L235A, V domains shown) VH: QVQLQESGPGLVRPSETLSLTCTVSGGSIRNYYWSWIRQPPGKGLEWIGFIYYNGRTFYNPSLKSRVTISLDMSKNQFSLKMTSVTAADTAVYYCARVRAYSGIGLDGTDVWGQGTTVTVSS VL: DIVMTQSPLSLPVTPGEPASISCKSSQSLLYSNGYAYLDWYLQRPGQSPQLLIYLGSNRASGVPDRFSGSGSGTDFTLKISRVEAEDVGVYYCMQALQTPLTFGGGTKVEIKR", 0]
]}
